// growth lookup, one value per entry
Test system: SF-295 CNS
METHOD_NOTES: NCI-60 one-dose screen, 48 h (100 = growth as untreated, 0 = no growth, -100 = all killed)
MEASUREMENT_SETUP: 10 µM unless noted
About 83,000 compounds went through this panel and 20% of them were active in at least one assay; those are over-represented in the sample as a whole.
MEASURED_PARAMETER: growth (%)

>>> val("COc1ccc(NNS(=O)(=O)O)cc1")
92.5
>>> val("C/C=C/C1OCC(CC)C(CCC)O1 (stereo unspecified)")
113
>>> val("Cc1ccc(C(C)C)c(OCC(=O)O)c1")
101
>>> val("CC(=O)c1cccc(O)c1")
101
>>> val("C=C1C(=O)C2CCC1C2 (stereo unspecified)")
102
>>> val("COc1ccc(Br)c2c1C(=O)CC2")
111
>>> val("C=C(C)[C@@H]1CC[C@]2(CO)CC[C@]3(C)[C@H](CC[C@@H]4[C@@]5(C)CC[C@H](O)C(C)(C)[C@@H]5CC[C@]43C)[C@@H]12")
71.4
>>> val("C/C(O)=C(/C=N/C(=S)Nc1ccccc1)C(=O)Nc1ccccc1C")
105
>>> val("COC1C(=O)CCC2(CO2)C1(O)C1(C)OC1CCC(C)C (stereo unspecified)")
72.9
>>> val("Nc1c(O)c(S(=O)(=O)O)c(O)c2c1C(=O)c1ccccc1C2=O")
12.8
>>> val("COc1nc2ccccc2s1")
113
>>> val("Cc1ccc(C)c2c1CCC2=O")
91.6
>>> val("CCCCCCCCCCCCSC1=C(Cl)C(=O)C(OC)=C(OC)C1=O")
38.3
>>> val("O=C(Nc1ccc([N+](=O)[O-])cc1)C(=O)Nc1ccc([N+](=O)[O-])cc1")
102
>>> val("Cc1ccc([N+](=O)[O-])c(C)n1")
97.7
>>> val("Cc1cccc(-[n+]2noc(N)n2)c1")
84.5
>>> val("CC(=O)Nc1ccc(O)c(C)c1")
105
>>> val("COC1OC(CO)C(OC)C(O)C1O (stereo unspecified)")
96.7
>>> val("COC(=O)c1cccc([N+](=O)[O-])c1")
105
>>> val("C1CCc2onc(-c3noc4c3CCCCC4)c2CC1")
99.5
>>> val("Cc1ccc(N2C(=O)c3cccc4c(N)c(S(=O)(=O)O)cc(c34)C2=O)cc1")
129
>>> val("CCOP(=O)(NC(c1ccccc1)c1ccccc1)OCC")
102
>>> val("ClCC(Cl)C1CCC(Cl)C(Cl)C1 (stereo unspecified)")
95.9
>>> val("CC(=O)C[n+]1ccc(C)cc1Sc1ccccc1C")
96.8
>>> val("Oc1ccc(N=Cc2ccc(OCc3ccccc3)cc2)cc1")
92
>>> val("CN1CCCN(C(c2ccccc2)c2ccc(Br)cc2)CC1 (stereo unspecified)")
57.8
